study-system: Kv 1.5 (Homo sapiens (Human), UniProt P22460)
Sequence (P22460 whole entry): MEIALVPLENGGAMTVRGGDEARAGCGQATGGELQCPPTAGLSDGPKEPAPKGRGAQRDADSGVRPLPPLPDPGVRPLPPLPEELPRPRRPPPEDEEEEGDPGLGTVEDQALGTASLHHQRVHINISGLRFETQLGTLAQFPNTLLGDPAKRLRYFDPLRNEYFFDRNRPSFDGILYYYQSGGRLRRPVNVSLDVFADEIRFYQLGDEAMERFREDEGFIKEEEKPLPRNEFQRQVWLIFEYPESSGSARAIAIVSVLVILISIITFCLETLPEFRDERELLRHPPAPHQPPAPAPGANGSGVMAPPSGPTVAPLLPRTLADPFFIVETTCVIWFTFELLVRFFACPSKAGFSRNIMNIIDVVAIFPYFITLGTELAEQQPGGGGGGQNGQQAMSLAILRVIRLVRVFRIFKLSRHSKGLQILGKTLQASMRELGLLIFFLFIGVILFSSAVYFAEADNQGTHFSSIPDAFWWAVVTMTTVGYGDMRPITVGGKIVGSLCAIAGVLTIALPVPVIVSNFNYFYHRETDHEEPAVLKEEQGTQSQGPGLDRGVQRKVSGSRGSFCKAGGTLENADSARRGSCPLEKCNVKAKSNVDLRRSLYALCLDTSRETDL
method: Kv1.5 (IKur) inhibition assay
Format: cell-based
Source text: Assays to determine the degree of activity of a compound as an IKur inhibitor are well known in the art and are described in references such as J. Gen. Physiol., 101(4):513-543 (April 1993), and Br. J. Pharmacol., 115(2):267-274 (May 1995). Assays to determine the degree of activity of a compound as an inhibitor of other members of the Kv1 subfamily are also well known in the art. […]
attribute-measured: inhibition at 0.3 µM (%)

- molecule: "Clc1nc(NCc2ccccc2)c2c(-c3ccccc3)cccc2n1 [Example 42]"
  study-system: "Kv 1.5 (Homo sapiens (Human), UniProt P22460)"
  observed-value: 96.4
- molecule: "c1ccc(CNc2nc(-c3cncnc3)nc3cccc(-c4cccc(N5CCOCC5)c4)c23)nc1 [Example 107]"
  study-system: "Kv 1.5 (Homo sapiens (Human), UniProt P22460)"
  observed-value: 50.3
- molecule: "FC(F)(F)c1ccccc1CNc1nc(Cl)nc2cccc(-c3ccccc3)c12 [Example 137]"
  study-system: "Kv 1.5 (Homo sapiens (Human), UniProt P22460)"
  observed-value: 55.6
- molecule: "COc1ccc(-c2nc(NCc3ccccn3)c3c(-c4ccccc4)cccc3n2)cn1 [Example 105]"
  study-system: "Kv 1.5 (Homo sapiens (Human), UniProt P22460)"
  observed-value: 98.7
- molecule: "Clc1nc(Nc2nccs2)c2c(-c3ccccc3)cccc2n1 [Example 38]"
  study-system: "Kv 1.5 (Homo sapiens (Human), UniProt P22460)"
  observed-value: 61.3
- molecule: "c1ccc(CNc2nc(-c3cncnc3)nc3cccc(-c4ccccc4)c23)cc1 [Example 40]"
  study-system: "Kv 1.5 (Homo sapiens (Human), UniProt P22460)"
  observed-value: 59.8
- molecule: "CC(Nc1nc(Cl)nc2cccc(-c3ccccc3)c12)c1ccccc1 (stereo not shown) [Example 130]"
  study-system: "Kv 1.5 (Homo sapiens (Human), UniProt P22460)"
  observed-value: 96.2
- molecule: "CN(C)c1ccc(-c2cccc3nc(Cl)nc(NCc4ccccn4)c23)cc1 [Example 108]"
  study-system: "Kv 1.5 (Homo sapiens (Human), UniProt P22460)"
  observed-value: 98.1

I = FC(F)(F)c1ccc(-c2cccc3nc(Cl)nc(NCc4ccccn4)c23)cc1 [Example 97]
II = Fc1ccc(CNc2nc(Cl)nc3cccc(-c4ccccc4)c23)nc1 [Example 110]
Please indicate which entry, I or II , has the lower recorded inhibition at 0.3 µM value. Pick one and reply with its label.
II

###

study-system: Flt3 (Homo sapiens (Human))
Sequence (P36888 27-993, species assumed): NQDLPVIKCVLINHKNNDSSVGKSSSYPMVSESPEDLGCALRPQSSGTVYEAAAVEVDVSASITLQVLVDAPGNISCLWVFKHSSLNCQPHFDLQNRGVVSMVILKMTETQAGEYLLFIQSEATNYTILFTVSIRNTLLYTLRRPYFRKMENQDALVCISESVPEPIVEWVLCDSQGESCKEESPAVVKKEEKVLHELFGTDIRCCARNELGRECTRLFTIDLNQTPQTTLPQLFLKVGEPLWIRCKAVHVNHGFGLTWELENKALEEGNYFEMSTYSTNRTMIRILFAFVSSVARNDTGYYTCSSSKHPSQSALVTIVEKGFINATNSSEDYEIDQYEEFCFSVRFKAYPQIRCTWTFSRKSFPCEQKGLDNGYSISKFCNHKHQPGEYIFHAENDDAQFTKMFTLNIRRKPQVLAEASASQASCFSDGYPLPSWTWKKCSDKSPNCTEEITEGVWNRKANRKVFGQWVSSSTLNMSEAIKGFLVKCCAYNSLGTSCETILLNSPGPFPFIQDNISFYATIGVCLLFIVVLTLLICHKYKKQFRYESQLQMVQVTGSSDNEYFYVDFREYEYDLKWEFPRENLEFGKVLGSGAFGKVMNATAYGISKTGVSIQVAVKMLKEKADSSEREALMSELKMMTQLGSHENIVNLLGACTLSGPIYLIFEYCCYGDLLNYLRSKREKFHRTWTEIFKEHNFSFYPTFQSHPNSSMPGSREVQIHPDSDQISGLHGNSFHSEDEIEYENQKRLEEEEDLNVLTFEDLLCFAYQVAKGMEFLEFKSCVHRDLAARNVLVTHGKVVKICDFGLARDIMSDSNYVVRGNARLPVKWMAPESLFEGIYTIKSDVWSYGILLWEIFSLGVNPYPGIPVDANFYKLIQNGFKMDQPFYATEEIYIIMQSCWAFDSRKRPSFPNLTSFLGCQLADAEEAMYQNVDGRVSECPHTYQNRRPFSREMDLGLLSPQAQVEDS
attribute-measured: pIC50
pIC50 is a log-scale quantity: -log10 of the concentration expressed in molar.

State, for Flt3 (Homo sapiens (Human)), measured pIC50 of the compound listed here: Clc1nc(NCc2ccccn2)c2c(-c3ccccc3)cccc2n1 [Example 19]
5.00

###

study-system: UniProtKB Q06187
Sequence (Q06187 whole entry, species assumed): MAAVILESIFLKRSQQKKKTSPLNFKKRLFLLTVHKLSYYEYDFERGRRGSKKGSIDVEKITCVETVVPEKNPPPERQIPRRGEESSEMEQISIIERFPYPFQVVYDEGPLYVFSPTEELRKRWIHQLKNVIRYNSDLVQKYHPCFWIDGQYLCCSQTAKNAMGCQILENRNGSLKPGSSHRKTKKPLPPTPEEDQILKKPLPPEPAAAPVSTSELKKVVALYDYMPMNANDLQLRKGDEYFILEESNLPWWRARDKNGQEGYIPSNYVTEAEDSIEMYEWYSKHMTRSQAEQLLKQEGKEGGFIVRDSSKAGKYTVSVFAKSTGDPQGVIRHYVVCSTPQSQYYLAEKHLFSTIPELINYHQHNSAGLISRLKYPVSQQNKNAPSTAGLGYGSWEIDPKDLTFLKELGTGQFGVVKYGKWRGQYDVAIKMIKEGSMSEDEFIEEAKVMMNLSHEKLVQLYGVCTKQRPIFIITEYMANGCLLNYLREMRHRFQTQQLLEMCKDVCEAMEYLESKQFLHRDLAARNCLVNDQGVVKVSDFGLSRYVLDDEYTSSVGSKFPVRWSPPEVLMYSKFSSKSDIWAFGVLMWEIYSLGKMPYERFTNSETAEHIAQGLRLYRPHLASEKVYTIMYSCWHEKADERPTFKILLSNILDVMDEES
attribute-measured: IC50 (µM)
Expressed in µM, but write only the number.

State, for UniProtKB Q06187, measured IC50 of the compound listed here: `Clc1nc(NCc2ccccn2)c2c(-c3ccccc3)cccc2n1`
19.2

###

study-system: JAK3 (Homo sapiens (Human))
Sequence (P52333 whole entry, species assumed): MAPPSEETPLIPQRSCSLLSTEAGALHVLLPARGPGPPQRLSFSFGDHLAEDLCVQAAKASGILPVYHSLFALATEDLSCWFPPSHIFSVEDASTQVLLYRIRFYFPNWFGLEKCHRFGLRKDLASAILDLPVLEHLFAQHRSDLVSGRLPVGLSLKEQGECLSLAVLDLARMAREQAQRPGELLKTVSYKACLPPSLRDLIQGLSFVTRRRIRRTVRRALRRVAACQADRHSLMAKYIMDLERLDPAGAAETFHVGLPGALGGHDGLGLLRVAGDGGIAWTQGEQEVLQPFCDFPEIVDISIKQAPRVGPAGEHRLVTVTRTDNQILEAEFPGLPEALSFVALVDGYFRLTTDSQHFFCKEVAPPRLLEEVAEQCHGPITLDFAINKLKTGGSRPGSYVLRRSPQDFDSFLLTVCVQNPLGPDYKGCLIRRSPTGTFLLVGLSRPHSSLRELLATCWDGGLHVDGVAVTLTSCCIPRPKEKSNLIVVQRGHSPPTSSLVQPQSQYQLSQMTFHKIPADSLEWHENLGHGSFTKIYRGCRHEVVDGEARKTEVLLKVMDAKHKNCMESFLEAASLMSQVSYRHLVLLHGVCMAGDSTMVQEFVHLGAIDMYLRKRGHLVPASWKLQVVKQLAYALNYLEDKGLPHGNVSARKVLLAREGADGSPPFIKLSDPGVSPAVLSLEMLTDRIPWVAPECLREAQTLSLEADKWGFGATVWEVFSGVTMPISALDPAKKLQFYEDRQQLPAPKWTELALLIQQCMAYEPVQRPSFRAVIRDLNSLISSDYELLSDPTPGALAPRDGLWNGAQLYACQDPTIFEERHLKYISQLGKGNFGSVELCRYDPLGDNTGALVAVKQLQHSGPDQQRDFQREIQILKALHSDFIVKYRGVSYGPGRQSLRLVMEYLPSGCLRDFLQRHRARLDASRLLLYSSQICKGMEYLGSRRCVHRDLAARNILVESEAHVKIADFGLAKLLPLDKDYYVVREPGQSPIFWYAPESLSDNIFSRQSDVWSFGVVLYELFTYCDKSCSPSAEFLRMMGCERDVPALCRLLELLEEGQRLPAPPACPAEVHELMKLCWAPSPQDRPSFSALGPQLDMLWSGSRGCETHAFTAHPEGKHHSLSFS
attribute-measured: IC50 (µM)
Expressed in µM, but write only the number.

State, in one line, measured IC50 of Clc1nc(NCc2ccccn2)c2c(-c3ccccc3)cccc2n1 [Example 19]
23.8

Cited source: patent US10214511B2
